test system: MCF7; test: NCI tumour cell line growth inhibition, 48 h
Active and inactive are the calls of the source. No stated cut-off is given here; in the data, active = GI50 up to about 1.1 µM and inactive = higher.
Select the matching outcome among active, inactive

Check out these entries, answers already filled in.
>>> df
                                   compound     cat
0  COc1cc(/C=N/n2c(-c3ccccc3)nn(C(C)=O)c2=O)cc(OC)c1OC  active
1  C=C(C)[C@H]1Cc2c(ccc3c2O[C@@H]2COc4cc(OC)c(OC)cc4[C@@H]2C3=O)O1 [ROTENONE]  active

Called result for O=C1CSC(c2cccc([N+](=O)[O-])c2)N1c1ccc(-c2ccc(-n3c(-c4ccccc4)nc4ccccc4c3=O)cc2)cc1 (centres undefined)
inactive

Moving on to the next compound: CCCCOC(=O)C(=O)C(CCC(=O)c1ccc(C)cc1)C(=O)C=C(C)C (centres undefined)
inactive

Entry to check: COc1ccc(C2=Nc3c(nc(OC)[nH]c3=O)NC(c3ccccc3)C2)cc1 (centres undefined)
inactive

Next compound: Cc1nc2c(Br)cc(Br)cc2c(=O)n1-c1ccccc1NC1OC(CO)C(O)C(O)C1O (centres undefined)
inactive

---

tested on: LXFL 529; test: NCI tumour cell line growth inhibition, 48 h
Calls of active or inactive are those of the source. No stated cut-off is given here; in the data, active = GI50 up to about 1.1 µM and inactive = higher.
quantity.name: GI50

# count of solved cases: 7
                                   compound  target_desc             measured
0  CC(C)S(=O)(=O)ON1C(=O)c2ccc([N+](=O)[O-])cc2C1=O     LXFL 529  > 100 µM (inactive)
1    CC(C)(CN1CCCCC1)C(=O)/C=C/c1ccc(Br)cc1     LXFL 529   1.81 µM (inactive)
2  CCCCCCCCCCCCCCCCOC(=O)c1cc(O)cc(C(=O)OCCCCCCCCCCCCCCCC)c1     LXFL 529  > 100 µM (inactive)
3                     COc1nc(N)nc2nc[nH]c12     LXFL 529  > 800 µM (inactive)
4    CCOc1ccc(/N=C/c2c3ccccc3nc3ccccc23)cc1     LXFL 529   24.7 µM (inactive)
5  CC1(C)OC2C(CCP(=O)(O)O)OC(c3nc(C(N)=O)cs3)C2O1 (stereo not drawn)     LXFL 529  > 100 µM (inactive)
6  O=C(Cc1ccccc1)NN1C(=O)C(Cl)C1c1cc(Br)ccc1O (stereo not drawn)     LXFL 529   5.68 µM (inactive)

Which measured GI50 belongs to COc1ccc(CCc2cc(OC)cc(OC)c2)cc1 , tested on LXFL 529?
32.9 µM (inactive)

---

test system: HL-60; experiment: NCI tumour cell line growth inhibition, 48 h
The source made the active and inactive calls. Cut-off read from the data, not from the text of the source: active = GI50 up to about 1.1 µM and inactive = higher. Residues, ends and D or L forms follow the SMILES beside them. Groups on a side chain read outwards from the residue. *: point of attachment. Cbz = O=C(OCc1ccccc1)*; Boc = CC(C)(C)OC(=O)*
A correct response names exactly one class from label 1 = active, label 0 = inactive

Here's what some known entries look like.
compound	cat
COc1ccccc1C(O)[C@@H]1C[C@@H]2[C@H]3CC[C@@](C)([C@@H]2O1)C3(C)C (stereo not given in full)	label 0
CO[C@@H]1O[C@H](C(=O)c2ccccc2)[C@H]2OC(C)(C)O[C@@H]12	label 0
Cc1cc(C)c2[s+]snc2c1	label 0
CNC(=S)NN=C1NCCCN1	label 0
CC(C)CC(NC(=O)OCc1ccccc1)C(=O)NCCCCC(NC(=O)C(CCCCNC(=O)C(CC(C)C)NC(=O)OCc1ccccc1)NC(=O)C(CCCCNC(=O)C(CC(C)C)NC(=O)OCc1ccccc1)NC(=O)C(CCCCNC(=O)C(CC(C)C)NC(=O)OCc1ccccc1)NC(=O)OC(C)(C)C)C(=O)O (stereo not given) (Boc-K([Leu-Cbz])K([Leu-Cbz])K([Leu-Cbz])K([Leu-Cbz])-OH; configuration not given here)	label 0

Check the results log: what was the call for CC1C(NNc2ccccc2)Oc2cc3c(cc2C1c1ccccc1O)OCO3 (stereo not given) ?
label 0

Again, but for C1COCCSC2=C(SCCO1)SC(=C1SC3=C(SCCOCCOCCS3)S1)S2
label 0

Another compound to look at: Cc1cc(C)c(S(=O)(=O)N2CCCN(S(=O)(=O)c3c(C)cc(C)cc3C)OCCCON(S(=O)(=O)c3c(C)cc(C)cc3C)CCCN(S(=O)(=O)c3c(C)cc(C)cc3C)OCCCO2)c(C)c1
label 0

Can you handle CN(C)CCNC1=CC(=O)c2c(O)ccc(O)c2C1=O next?
label 0

Another: N#CC(C#N)=CNC(=S)c1ccncc1
label 0

Further, for O=c1[nH]cnc2c1ncn2C1SC(CO)C(O)C1O (stereo not given) ?
label 0

Try CCc1nn(CN2CCN(C)CC2)c(=S)n1/N=C\c1ccc(-c2ccc([N+](=O)[O-])cc2)o1 next.
label 0

Entry CC(C)=CCC[C@H](C)[C@H]1CC[C@@H](C)c2cc(O)c(C)cc21 please
label 0

Now try COc1ccc2c(c1)N(C(C)=O)CN1C(=O)CCC21 (stereo not given) .
label 0

// next record CCOc1ccc(NC(=O)CCc2nnc(SC)o2)cc1
label 0
